- Tested on: human c-Met (HGFR), full length, on the cell surface (human, UniProt P08581 25-1390)
- Sequence (P08581 25-1390 limits assumed): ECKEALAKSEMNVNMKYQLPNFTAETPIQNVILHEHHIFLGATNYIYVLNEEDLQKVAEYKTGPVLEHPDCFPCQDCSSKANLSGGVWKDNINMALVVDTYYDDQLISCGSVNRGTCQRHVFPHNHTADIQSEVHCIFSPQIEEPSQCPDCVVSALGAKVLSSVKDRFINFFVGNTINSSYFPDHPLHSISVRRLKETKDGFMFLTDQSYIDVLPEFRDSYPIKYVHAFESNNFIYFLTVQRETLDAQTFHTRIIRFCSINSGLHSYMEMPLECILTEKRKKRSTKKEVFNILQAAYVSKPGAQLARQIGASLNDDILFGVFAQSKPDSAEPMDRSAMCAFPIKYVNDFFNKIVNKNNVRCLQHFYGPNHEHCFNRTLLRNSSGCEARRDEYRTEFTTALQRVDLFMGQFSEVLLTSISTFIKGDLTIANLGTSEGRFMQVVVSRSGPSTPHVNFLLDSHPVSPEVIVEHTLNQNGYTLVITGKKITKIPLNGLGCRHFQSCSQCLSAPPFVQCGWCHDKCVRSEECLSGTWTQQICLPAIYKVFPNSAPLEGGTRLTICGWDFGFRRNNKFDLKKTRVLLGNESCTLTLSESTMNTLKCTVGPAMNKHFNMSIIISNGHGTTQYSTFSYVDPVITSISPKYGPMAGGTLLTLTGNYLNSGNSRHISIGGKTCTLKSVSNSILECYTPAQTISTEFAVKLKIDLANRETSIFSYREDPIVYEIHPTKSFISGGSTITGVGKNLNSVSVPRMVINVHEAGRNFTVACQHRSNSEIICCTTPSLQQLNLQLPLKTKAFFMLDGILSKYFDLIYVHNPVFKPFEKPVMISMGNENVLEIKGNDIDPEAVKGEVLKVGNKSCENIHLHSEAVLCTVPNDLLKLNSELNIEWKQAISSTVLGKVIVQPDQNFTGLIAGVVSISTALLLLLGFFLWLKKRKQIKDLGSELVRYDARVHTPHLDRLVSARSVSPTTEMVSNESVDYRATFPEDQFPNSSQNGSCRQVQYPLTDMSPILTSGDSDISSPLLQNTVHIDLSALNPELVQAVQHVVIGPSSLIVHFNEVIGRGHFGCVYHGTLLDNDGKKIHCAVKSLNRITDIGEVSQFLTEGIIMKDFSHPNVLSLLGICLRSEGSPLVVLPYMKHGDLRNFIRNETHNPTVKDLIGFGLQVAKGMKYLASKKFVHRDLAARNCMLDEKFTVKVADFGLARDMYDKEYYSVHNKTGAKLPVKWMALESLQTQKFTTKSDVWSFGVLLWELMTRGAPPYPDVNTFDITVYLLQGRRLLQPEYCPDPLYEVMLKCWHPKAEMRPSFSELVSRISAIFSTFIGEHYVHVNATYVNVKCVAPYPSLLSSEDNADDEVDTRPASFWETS
- Measurement protocol: cell-based or functional assay
Value kind: Efficacy (%), in vitro cytotoxicity, PC-3, +HGF
The answer consists of two parts: a number and, after it, its unit.

INPUT: Determine its reported Efficacy (%), in vitro cytotoxicity, PC-3, +HGF: ADC2 (antibody, human IgG1, kappa, V domains shown, vc-seco-DUBA linker-drug on the engineered cysteine at HC position 41 (Kabat); DAR 1.7) VH: QVQLQQSGAELVRPGASVKLSCKASGYVFPDYEMHWVKQTCVHGLEWIGAFDPETGDTTYNQNFKGKATLTADKASSTAYMDLRSLTSGDSAVYYCARDYKYLYYYAMDNWGQGTSVTVSS VL: QIVLTQSPAIMSASLGERVTMTCTASSSITSSYLHWYQQKPGSSPKLWIYSTTNLASGVPGRFSGSGSGTSFSLTISSMEAEDAATYYCHQYRRSPLTFGAGTKLELKR
OUTPUT: 69%
